- test-summary: in vitro
- test-parameters: human, hela cells, % viability
Measured viability at 28.5 h, 10 µM values are reported for all entries that follow.

| compound | viability at 28.5 h, 10 µM (%) |
| --- | --- |
| COc1ccc(-c2nnc(SCC(=O)Nc3ccccc3[N+](=O)[O-])n2C)cc1 | 103 |
| CC(Sc1nc2ccccc2[nH]1)C(=O)Nc1ccc(S(N)(=O)=O)cc1 (stereo not shown) | 114 |
| COC[C@H](C)Nc1ccc(C(=O)N2CCC(N3CCOCC3)CC2)cn1 | 84.8 |
| O=C(NC(c1ccccc1)c1ccccn1)c1ccco1 (stereo not shown) | 106 |
| c1ccc2[nH]c(CCCCCc3nc4ccccc4[nH]3)nc2c1 | 107 |
| COc1ccc(COc2nccnc2N2CCCC2)cc1OC | 94.8 |
| CC(=O)Nc1cccc(CN2CCCC2CC(O)c2ccccc2)c1 (stereo not shown) | 104 |
| Cc1cccc(NC(=S)NCCc2ccc(S(N)(=O)=O)cc2)c1C | 86.5 |
| COc1ccc(N2CCN(c3cc(-c4cccc(NC(C)=O)c4)ncn3)CC2)cc1OC | 96.4 |
| COc1ccc(OC)c(-n2nnnc2SCC2CCCN(C)C2)c1 (stereo not shown) | 84.2 |
